Tested on: Fibroblast
Experiment: Multiplex assay against human fibroblast
Format: toxicity, cell-based
Details: 48 h, 10 µM, compound concentration 10 uM, replicate 2
For each entry below, report its Population Mitotic Cells (%) value.
Answers are plain numbers, in %.

1. C=CCN1C[C@H](C(=O)N(CCCN(C)C)C(=O)NCC)C[C@@H]2c3cccc4[nH]cc(c34)C[C@H]21 ... 53
2. COCCCN1CCC(NC(=O)c2cc(Cl)c(N)c3c2OCC3)CC1 [PRUCALOPRIDE] ... 37
3. Cc1c(Cc2ccc3ccccc3n2)c2cc(F)ccc2n1CC(=O)O ... 40
4. COc1cc(Nc2ncc3c(n2)-c2ccc(Cl)cc2C(c2c(F)cccc2OC)=NC3)ccc1C(=O)O ... 33
5. CCc1nn2c(C)cc(C)nc2c1Cc1ccc(-c2nnc(C3CCNCC3)o2)cc1 ... 45

Dear colleague, could you send me Population Mitotic Cells (%) for each of the items below? Thanks.
1. CN1CCC(C(=O)c2cccc(NC(=O)c3c(F)cc(F)cc3F)n2)CC1
2. Cc1ccc(OCC(O)C(C)NC(C)C)c2c1CCC2.Cl (stereo not drawn)
3. Nc1nc(-c2ccco2)c2cnn(Cc3ccccc3F)c2n1

1: 45; 2: 40; 3: 50
